target: Leucine aminopeptidase (Plasmodium falciparum (isolate 3D7)); experiment: P. falciparum M17LAP inhibitors, primary screen, biochemical, fluorogenic H-Leu-NHMec substrate, 1536-well (AID 1619); conditions: recombinant M17LAP, H-Leu-NHMec fluorogenic kinetic assay; at 30 µM; stronger effect = higher value;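 note: plate controls were full reaction with DMSO carrier for no effect and no enzyme background for full effect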
Out of some 220,000 compounds screened, about 830 (0.38%) were called active. Only a sample is shown. Measured potencies and affinities stand elsewhere.
result.type: inhibition (%)
Numbers only; they are read as %.

Take a look at these entries with their results.
CCOc1ccc(S(=O)(=O)c2c(C(=O)c3ccccc3)cnc3cc4c(cc23)OCCO4)cc1; 1.82
COc1ccc(N2CCN(CCCNC(=O)C3CCC(CNc4nc(=S)[nH]c5ccccc45)CC3)CC2)cc1 (stereo unspecified); 10.8
NC(=O)N[C@@H](Cc1c[nH]c2ccccc12)C(=O)OCC(=O)N1CCCCC1; -0.49
CCOC(=O)C1(CCCc2ccccc2)CCN(C(=O)CCc2cnccn2)CC1; -4.8
COc1ccc(CN2CCN(C)CC2)cc1OCc1ccccc1; -2.4
COc1ccc(Nc2nc(N)nc(CN3CCC(Cc4ccccc4)CC3)n2)cc1; -2.44
O=C(COc1ccccc1Cl)N1CCN(c2ncccn2)CC1; 5.76
CCCC(=O)Nc1nnc(-c2ccco2)s1; -4.22
CCCCNC(=O)N1CCN(C(=O)C2CCCO2)CC1 (stereo unspecified); -0.24
CC(C)N(C(=O)C1CC(=O)OC12CCCCC2)C(C)C (stereo unspecified); -0.49

// next item, inhibition requested
Value of inhibition reported for the compound CC(C)Cc1ccc(-c2cc(=O)[nH][nH]2)cc1 is 3.83

* * *

inhibition overview
target: Leucine aminopeptidase (Plasmodium falciparum (isolate 3D7)) (UniProt Q8IL11); assay: P. falciparum M17LAP inhibitors, primary screen, biochemical, fluorogenic H-Leu-NHMec substrate, 1536-well (AID 1619); settings: recombinant M17LAP, H-Leu-NHMec fluorogenic kinetic assay; at 30 µM; stronger effect = higher value
Sequence (Q8IL11 whole entry, looked up): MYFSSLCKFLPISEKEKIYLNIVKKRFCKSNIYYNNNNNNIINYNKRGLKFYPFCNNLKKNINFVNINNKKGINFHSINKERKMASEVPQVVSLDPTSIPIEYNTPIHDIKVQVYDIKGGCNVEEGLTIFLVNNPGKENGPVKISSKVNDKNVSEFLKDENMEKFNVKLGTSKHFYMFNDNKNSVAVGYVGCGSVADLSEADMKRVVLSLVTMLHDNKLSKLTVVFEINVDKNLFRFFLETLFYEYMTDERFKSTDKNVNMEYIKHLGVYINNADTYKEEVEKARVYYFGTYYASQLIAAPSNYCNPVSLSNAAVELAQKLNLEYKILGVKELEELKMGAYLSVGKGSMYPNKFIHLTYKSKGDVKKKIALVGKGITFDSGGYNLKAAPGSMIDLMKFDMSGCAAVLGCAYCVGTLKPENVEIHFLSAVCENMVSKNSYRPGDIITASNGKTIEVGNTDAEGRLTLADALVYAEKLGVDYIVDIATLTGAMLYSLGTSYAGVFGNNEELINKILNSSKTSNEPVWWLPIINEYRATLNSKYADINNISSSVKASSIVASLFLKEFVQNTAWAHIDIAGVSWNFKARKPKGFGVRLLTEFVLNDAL
Among all 220,000 compounds or so, about 830 (0.38%) were called active. Not all results are given here. Results with a measured potency or affinity are listed apart.
Your answer should be a plain number; it is taken to be in %.

O=C(CN1CCC(n2nnc3cc(C(F)(F)F)ccc32)CC1)N1CCc2ccccc21; 10.6
CCOCc1nc(C)c(Cl)c(NS(=O)(=O)c2ccc(N)cc2)n1; -2.71
Cc1ccc(N=Cc2cc(C)n(C3CCCC3)c2C)cc1; 3.83
CCOC(=O)C1CSC(CC(=O)Nc2ccc(OC(F)(F)F)cc2)C(=O)N1 (stereo unspecified); 14

Read the next record carefully.
According to the records, this molecule O=c1[nH]c2cccnc2n1-c1cccc([N+](=O)[O-])c1 displays inhibition of -2.76

* * *

target: Leucine aminopeptidase (Plasmodium falciparum (isolate 3D7)) (UniProt Q8IL11); experiment: P. falciparum M17LAP inhibitors, primary screen, biochemical, fluorogenic H-Leu-NHMec substrate, 1536-well (AID 1619); details: recombinant M17LAP, H-Leu-NHMec fluorogenic kinetic assay; at 30 µM; stronger effect = higher value
The campaign covered roughly 220,000 compounds. About 830 (0.38%) were called active. The list is a sample of the results. Measured potencies and affinities stand elsewhere.
result.type: inhibition (%)
Field format: number, assumed %, no unit text.

Solved cases below.
O=C(CSCc1nc2c(nnn2Cc2ccc(F)cc2)c(=O)[nH]1)Nc1c(Cl)cc(Cl)cc1Cl; 30.5
CCOC(=O)c1oc2ccccc2c1NC(=O)c1ccc(S(=O)(=O)N2CCCC2)cc1; -6.8
CC(=O)Nc1c(O)nc(SCC(=O)Nc2c(C)cccc2C)[nH]c1=O; 13.4
CC(C)Nc1nnc(SC(C)C(=O)Nc2ccc(Cl)cn2)s1 (stereo not given); 5.71

response.value for CCCNS(=O)(=O)c1ccc(N2CCCC2=O)c([N+](=O)[O-])c1 (field: inhibition) = -2.44

* * *

molecular target: Leucine aminopeptidase (Plasmodium falciparum (isolate 3D7)) (UniProt Q8IL11); assay: P. falciparum M17LAP inhibitors, primary screen, biochemical, fluorogenic H-Leu-NHMec substrate, 1536-well (AID 1619); details: recombinant M17LAP, H-Leu-NHMec fluorogenic kinetic assay; at 30 µM; stronger effect = higher value
Hit rate of the full screen: of about 220,000 compounds, about 830 (0.38%) were called active. These entries were drawn from the full list. Entries with a potency or affinity are not part of this list.
result.type: inhibition (%)
# unit: % | format: bare number

O=C(O)Cn1nnnc1SCC(=O)Nc1ccccc1F; 18.7
CCOc1ccc(NC(=O)CSc2nnc(CCNC(=O)c3ccc(OC)cc3)n2C)cc1; 23.6
O=C(O)CCNc1ccc2c(c1)OCCO2; 13.7
CCn1nnnc1SCC(=O)Nc1ccc(OC)cc1; 3.82
O=C(Nc1ccc2c(c1)OCCO2)NC1CCCCC1; 53.6

Turning now to a further record.
Lab note: O=C(O)CCC(=O)Nc1ccc(OCC(=O)O)cc1 gave inhibition of -3.01

* * *

molecular target: Leucine aminopeptidase (Plasmodium falciparum (isolate 3D7)); test: P. falciparum M17LAP inhibitors, primary screen, biochemical, fluorogenic H-Leu-NHMec substrate, 1536-well (AID 1619); details: recombinant M17LAP, H-Leu-NHMec fluorogenic kinetic assay; at 30 µM; stronger effect = higher value;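 note: plate controls were full reaction with DMSO carrier for no effect and no enzyme background for full effect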
The whole screen tested about 220,000 compounds, of which about 830 (0.38%) were called active. The list is a sample of the results. Potency and affinity values are given separately.
Recorded inhibition for the following molecules
Respond with the bare value in %.

Consider the worked cases shown below.
COc1cccc(NC(=O)CSc2nc(N)cc(N)n2)c1; 47.2
COC(=O)CSc1nc2cc(Cl)ccc2c(=O)n1C1CCCC1; -2.31
CCCC1C2C(=O)N(c3ccccc3)C(=O)C2ON1c1ccccc1 (stereo not drawn); -10.4
COC(=O)c1cccc(NC(=O)COC(=O)CSc2nc(C)cc(C)n2)c1; 5.31
Cc1ccc(Cn2ccc(C3CC3)n2)cc1; -1.75
CCOc1ccc(N2C(=O)C3Sc4[nH]c(=O)sc4C(c4ccc(OC)c(OC)c4)C3C2=O)cc1 (stereo not drawn); -5.76
CCn1cc(C(=O)OCC(=O)N2C(C)CCCC2C)c(=O)c2ccc(C)nc21 (stereo not drawn); 0.44
C/C(=N/NC(=O)CSCc1ccc(Cl)cc1)c1cccc(NC(=O)c2ccccc2)c1; -0.71

Looking up COc1ccccc1-c1n[nH]c(=S)n1N , I found its inhibition recorded as -6.79

inhibition recorded for this molecule, Cc1c(-c2ccc(Cl)cc2)oc(=O)c2c(N)n(-c3ccccc3)nc12 , is -7.58

The recorded inhibition for entry O=C(Nc1ccc(Cl)cc1)OCc1cn(-c2ccccc2)nn1 equals 6.64

* * *

Below, each entry is listed with its recorded inhibition.
target: Leucine aminopeptidase (Plasmodium falciparum (isolate 3D7)) (UniProt Q8IL11); assay: P. falciparum M17LAP inhibitors, primary screen, biochemical, fluorogenic H-Leu-NHMec substrate, 1536-well (AID 1619); conditions: recombinant M17LAP, H-Leu-NHMec fluorogenic kinetic assay; at 30 µM; stronger effect = higher value;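 note: plate controls were full reaction with DMSO carrier for no effect and no enzyme background for full effect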
Out of some 220,000 compounds screened, about 830 (0.38%) were called active. The list is a sample of the results. Measured potencies and affinities stand elsewhere.
# value in %; strip the unit string

# count of solved cases: 3
c1ccc(CSc2ncnc3c2cnn3-c2ccccc2)cc1; 6.75
Cc1cc(C(=O)NC(Cc2ccccc2)C(=O)O)c(C)o1 (stereo not drawn); -7.27
CCn1c(SCC(=O)c2[nH]c(C)c(C(C)=O)c2C)nnc1-c1cccs1; 12.2

inhibition reported for this molecule O=c1c(OC2OC(CO)C(O)C(O)C2O)c(-c2ccc(O)c(O)c2)oc2cc(O)cc(O)c12 (stereo not drawn) : 31

Lab note: N=c1n(Cc2ccc(Cl)cc2)c2ccccc2n1CC(O)COc1ccccc1 (stereo not drawn) gave inhibition of 6.49

The recorded inhibition for entry OC1COC(OCC2OC(OCc3ccccc3)C(O)C(O)C2O)C(O)C1O (stereo not drawn) equals -0.69

# inhibition of O=c1c(O[C@@H]2O[C@H](CO)[C@H](O)[C@H](O)[C@H]2O)c(-c2ccc(O)c(O)c2)oc2cc(O)cc(O)c12 = -6.93

* * *

target: Leucine aminopeptidase (Plasmodium falciparum (isolate 3D7)); test: P. falciparum M17LAP inhibitors, primary screen, biochemical, fluorogenic H-Leu-NHMec substrate, 1536-well (AID 1619); conditions: recombinant M17LAP, H-Leu-NHMec fluorogenic kinetic assay; at 30 µM; stronger effect = higher value;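 note: plate controls were full reaction with DMSO carrier for no effect and no enzyme background for full effect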
Hit rate of the full screen: of about 220,000 compounds, about 830 (0.38%) were called active. A selection follows. Results with a measured potency or affinity are listed apart.
Each item that follows carries a reported inhibition.
A number alone suffices; assume %.

As a guide, the following entries are already answered.
Cn1nc(C(F)(F)F)c(-c2ccc(F)cc2)c1NC(=O)c1cccnc1; -2.14
O=C(O)C1CC=C(Cl)CC1C(=O)NCc1ccccc1 (stereo unspecified); 36.4
O=C(O)C1CC=CCC1C(=O)Nc1ccccc1C(=O)N1CCN(c2ccc(F)cc2)CC1 (stereo unspecified); 23.1
N#Cc1cc2c(nc1SCC(O)CS(=O)(=O)Cc1ccccc1)CCCC2 (stereo unspecified); 22.9
O=C(CN1CCN(c2ncc(C(F)(F)F)cc2Cl)CC1)NC(=O)NCc1ccccc1; -3.07
Cc1cc(C)c(C#N)c(SCCS(=O)(=O)Cc2ccccc2)n1; -2.33
CCOC(=O)N1CCN(c2cc(C)c(C(C)=O)cc2F)CC1; 14.4
CCOc1ccc(NC(=S)NNC(=S)Nc2cccc(C(F)(F)F)c2)cc1; -5.94
COc1ccccc1CNC(=O)COC(=O)Cc1c(F)cccc1Cl; -4.41
C=CCn1c(-c2ccc(OC)c(OC)c2)n[nH]c1=S; 13.8

We next turn to a different compound, shown below.
Sure, the documented inhibition for c1ccc(CCNc2nc(-c3ccncc3)nc3ccccc23)cc1 is 11.8
